Experiment: logP determination by HPLC on a reversed-phase column (C18), EEC Directive 79/831 Annex V.A8
Type: physicochemical
Conditions: HPLC-MS, reversed-phase column (C18)
VALUE_KIND: log P

>  <COMPOUND>
Cc1ncc(-c2cnn(-c3c(Cl)cc(C(F)(C(F)(F)F)C(F)(F)F)cc3C(F)(F)F)c2)cc1C(=O)N(C)C1(C#N)CC1

>  <NUMERIC_READOUT>
3.9

$$$$
>  <COMPOUND>
COCCNc1ncc(-c2cnn(-c3c(Cl)cc(C(F)(C(F)(F)F)C(F)(F)F)cc3Cl)c2)cc1C(=O)NC1CC1

>  <NUMERIC_READOUT>
4.1

$$$$
>  <COMPOUND>
N#CC1(NC(=O)c2cc(-c3cnn(-c4ncc(C(F)(C(F)(F)F)C(F)(F)F)cc4SCC(F)(F)F)c3)ccc2Cl)CC1

>  <NUMERIC_READOUT>
4.5

$$$$
>  <COMPOUND>
CN(C(=O)c1cc(-c2cnn(-c3c(Cl)cc(C(F)(C(F)(F)F)C(F)(F)F)cc3C(F)(F)F)c2)cnc1Cl)C1(C#N)CC1

>  <NUMERIC_READOUT>
4.3

$$$$
>  <COMPOUND>
Cc1ncc(-c2cnn(-c3c(Cl)cc(C(F)(F)F)cc3Cl)c2)cc1C(=O)N(C)C1CC1

>  <NUMERIC_READOUT>
2.8

$$$$
>  <COMPOUND>
CNc1ncc(-c2cnn(-c3c(Cl)cc(C(F)(C(F)(F)F)C(F)(F)F)cc3Cl)c2)cc1C(=O)NC1CC1

>  <NUMERIC_READOUT>
3.5

$$$$
>  <COMPOUND>
CN(C(=O)c1cc(-c2cnn(-c3c(Cl)cc(C(F)(C(F)(F)F)C(F)(F)F)cc3Cl)c2)cnc1Cl)C1(C#N)CC1

>  <NUMERIC_READOUT>
4.3

$$$$
>  <COMPOUND>
Cc1cc(C(F)(C(F)(F)F)C(F)(F)F)cc(C(F)(F)F)c1-n1cc(-c2cnc(C)c(C(=O)N(C)C3(C#N)CC3)c2)cn1

>  <NUMERIC_READOUT>
3.9

$$$$
>  <COMPOUND>
CCc1cc(C(F)(C(F)(F)F)C(F)(F)F)ccc1-n1cc(-c2cnc(Cl)c(C(=O)NC3CC3)c2)cn1

>  <NUMERIC_READOUT>
4.2

$$$$
>  <COMPOUND>
O=C(NC1CC1)c1cc(-c2cnn(-c3c(Br)cc(C(F)(C(F)(F)F)C(F)(F)F)cc3C(F)(F)F)c2)ccc1Cl

>  <NUMERIC_READOUT>
4.5

$$$$
>  <COMPOUND>
CCc1cc(C(F)(C(F)(F)F)C(F)(F)F)cc(C)c1-n1cc(-c2cnc(Cl)c(C(=O)NC3CC3)c2)cn1

>  <NUMERIC_READOUT>
4.2

$$$$
>  <COMPOUND>
CCc1cc(C(F)(C(F)(F)F)C(F)(F)F)ccc1-n1cc(-c2cnc(Cl)c(C(=O)NC3(C#N)CC3)c2)cn1

>  <NUMERIC_READOUT>
4.1

$$$$
>  <COMPOUND>
O=C(NC1CC1)c1cc(-c2cnn(-c3c(Br)cc(C(F)(C(F)(F)F)C(F)(F)F)cc3C(F)(F)F)c2)cnc1Cl

>  <NUMERIC_READOUT>
4.0

$$$$
>  <COMPOUND>
CC[S+]([O-])c1cc(C(F)(C(F)(F)F)C(F)(F)F)cnc1-n1cc(-c2ccc(Cl)c(C(=O)NC3(C#N)CC3)c2)cn1 (centres unmarked)

>  <NUMERIC_READOUT>
3.7

$$$$
